The origin of these recorded values is patent US8609836B2.

- measurementTarget: AuroraB (h) (Homo sapiens)
- Sequence (Q96GD4 whole entry): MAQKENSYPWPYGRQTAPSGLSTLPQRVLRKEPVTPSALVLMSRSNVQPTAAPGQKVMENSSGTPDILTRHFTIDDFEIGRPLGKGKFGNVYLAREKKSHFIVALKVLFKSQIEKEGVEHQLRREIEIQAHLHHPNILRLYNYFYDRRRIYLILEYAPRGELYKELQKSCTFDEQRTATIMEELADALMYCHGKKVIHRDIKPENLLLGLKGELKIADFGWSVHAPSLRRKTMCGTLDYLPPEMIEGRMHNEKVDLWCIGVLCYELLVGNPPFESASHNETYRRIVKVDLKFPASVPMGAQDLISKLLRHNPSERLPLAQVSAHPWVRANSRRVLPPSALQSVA
- runDescription: Aurora-B human kinase inhibition, SPA
- Format: biochemical
- conditions: read-out: AuroraB pIC50 (converted)
measuredEndpoint: IC50

Worked cases, IC50 given:
Task: // query IC50 value for entry CN1CCNC(=O)CN2CCN(CC2)Cc2cccc(c2)Nc2nccc(n2)-c2ccc(cc2)C1
Result: > 10 µM

Task: // next record COc1cc2cc(c1OC)CN1CCC[C@H]1C(=O)NCc1cccc(c1)-c1ccnc(n1)N2
Result: > 10 µM

Task: // next record O=C1NCCNCc2ccc(cc2)-c2ccnc(n2)Nc2ccc(N3CCOCC3)c(c2)CN[C@H]1Cc1ccccc1
Result: > 10 µM

New cases:
Task: // query IC50 value for entry O=C1NCc2cccc(c2)-c2ccnc(n2)Nc2cccc(c2)CN2C[C@@H](O)C[C@@H]12
Result: > 10 µM

Task: // next record O=C(NC1CCOCC1)c1cc2cc(c1)Nc1nccc(n1)-c1cccc(c1)CNC(=O)[C@@H]1CCCN1C2
Result: 4.9 µM

Task: // next record CN1CCCNC(=O)CN2CCN(CC2)Cc2cc(Br)cc(c2)Nc2nccc(n2)-c2ccc(cc2)C1
Result: > 10 µM

Task: // next record COc1cc2cc(c1)Nc1nccc(n1)-c1ccc(cc1)CN(C)CCNC(=O)C1CCN(CC1)C2
Result: > 10 µM

Task: // next record O=C1CN2CCN(CC2)Cc2cc(ccc2N2CCOCC2)Nc2nccc(n2)-c2cccc(c2)OCCN1
Result: > 10 µM

Task: // next record O=C1NCc2cccc(c2)-c2ccnc(n2)Nc2cc(CN3CCOCC3)cc(c2)CN2CCC[C@@H]12
Result: 10.2 µM

Task: // next record COc1ccc2cc1CN(C)CCCNC(=O)CN1CCN(CC1)Cc1cccc(c1)Nc1nccc-2n1
Result: > 10 µM

Task: // next record COc1ccc2cc1CN(C)CCNC(=O)C1CCN(CC1)Cc1cccc(c1)Nc1nccc-2n1
Result: > 10 µM

Task: // next record COc1ccc2cc1CN(C)CCCNC(=O)C1CCN(CC1)Cc1cc(Br)cc(c1)Nc1nccc-2n1
Result: 5.5 µM

----------
- Tested on: MDA-MB-231
- runDescription: Cellular proliferation assay (Alamar blue), MDA-MB-231
- Assay type: cell-based
- conditions: Homo sapiens, 10% FCS, 72 hours with compound, Alamar blue 24 h, read-out: MDA/MB231 (cellular proliferation assay, Table 4) (converted)
measuredEndpoint: IC50

Worked cases, IC50 given:
Task: // query IC50 value for entry COc1cc2cc(c1)Nc1nccc(n1)-c1ccc(cc1)CN(C)CCNC(=O)C1CCN(CC1)C2 [Compound 62]
Result: 9.12 µM

Task: // next record COc1ccc2cc1CN(C)CCNC(=O)[C@H](CO)NCc1cc(cc(N3CCOCC3)c1)Nc1nccc-2n1 [Compound 105]
Result: > 10 µM

Task: // next record COc1cc2cc(c1)Nc1nccc(n1)-c1ccc(OC)c(c1)CN(C)CCNC(=O)[C@H](CO)NC2 [Compound 107]
Result: > 10 µM

New cases:
Task: // query IC50 value for entry C[C@@H]1NCc2cc(ccc2N2CCOCC2)Nc2nccc(n2)-c2cccc(c2)OCCCNC1=O [Compound 88]
Result: 6.76 µM

Task: // next record O=C1NCc2ccc(cc2)-c2ccnc(n2)Nc2ccc(N3CCOCC3)c(c2)CN2C[C@H](O)C[C@@H]12 [Compound 56]
Result: > 10 µM

Task: // next record CC1(C)NCc2cc(ccc2N2CCOCC2)Nc2nccc(n2)-c2cccc(c2)OCCCNC1=O [Compound 90]
Result: 5.37 µM

Task: // next record O=C1NCCCNCc2ccc(cc2)-c2ccnc(n2)Nc2ccc(N3CCOCC3)c(c2)CN2CCC[C@@H]12 [Compound 172]
Result: > 10 µM
